- tgt: recombinant human ACC2 (Homo sapiens (Human))
- assay.notes: Measurement of inhibitory activity on human ACC2 (MALDI-TOF MS, acetyl CoA to malonyl CoA conversion)
- Format: biochemical
- condition.details: Tables 155-159
Each entry falls in a class defined on IC50; the bands are lowest: < 10 nM; middle: ≥ 10 nM and < 60 nM; highest: ≥ 60 nM

These solved cases illustrate the format of a correct answer.
# classify by IC50 band: CC(=O)N[C@@H](C)CO[C@H]1C[C@H](COc2ccc3nc(C(C)C)sc3c2)C1 middle

# classify by IC50 band: CCOc1nc2cc(F)c(OC[C@H]3C[C@H](OC[C@H](C)NC(C)=O)C3)nc2s1 lowest

# classify by IC50 band: CC(=O)N[C@@H](C)CO[C@H]1CC[C@H](Oc2ncc(-c3ncc(C(F)(F)F)cn3)cc2F)CC1 middle

# classify by IC50 band: CC(=O)N[C@@H](C)CO[C@H]1C[C@H](COc2ccc3nc(C(C)(F)F)sc3n2)C1 middle

# classify by IC50 band: CC(=O)N[C@@H](C)CO[C@H]1C[C@H](COc2ncnc(C3=CCCCC3)c2C)C1 highest

# classify by IC50 band: CC(=O)N[C@@H](C)CO[C@H]1C[C@H](COc2nccc(OCC3CC3(F)F)c2Cl)C1 (some centres unmarked) highest

# classify by IC50 band: CC(=O)N[C@@H](C)CO[C@H]1C[C@H](COc2ncnc(OCc3ccccc3)c2F)C1 lowest

# classify by IC50 band: CC(=O)N[C@@H](C)CO[C@H]1C[C@H](COc2ncnc(OCc3ccc(F)cn3)c2Cl)C1 middle

New cases:
# classify by IC50 band: CC(=O)N[C@@H](CF)CO[C@H]1CC[C@H](Oc2nc3cnc(OCC(F)F)c(Cl)c3n2C)CC1 lowest

# classify by IC50 band: CC(=O)N[C@@H](CO)CO[C@H]1CC[C@H](Oc2nc3cnc(OCC(F)F)c(Cl)c3n2C)CC1 highest

# classify by IC50 band: C[C@@H](CO[C@H]1CC[C@H](Oc2nc3c(F)cc(OCC(F)F)c(Cl)c3n2C)CC1)NC(N)=O middle

# classify by IC50 band: C[C@@H](CO[C@H]1CC[C@H](Oc2nc3c(F)cc(OCC(F)F)c(F)c3n2C)CC1)NC(=O)c1cn[nH]c1 middle

# classify by IC50 band: CC(=O)N[C@@H](C)CO[C@H]1C[C@H](COc2nccc(C3=CCCC3)c2C)C1 middle

# classify by IC50 band: CC(=O)N[C@@H](C)CO[C@H]1CC[C@H](Oc2ncc3nc(OC4CC(F)(F)C4)sc3c2F)CC1 lowest

# classify by IC50 band: CC(=O)N[C@@H](C)CC[C@H]1OC[C@H](Oc2nc3c(F)cc(OCC(F)F)c(Cl)c3n2C)CO1 lowest

# classify by IC50 band: CC(=O)N[C@@H](C)CO[C@H]1C[C@H](COc2ccc3nc(OCC(F)F)sc3c2F)C1 highest

# classify by IC50 band: CC(=O)N[C@@H](C)CO[C@H]1C[C@H](COc2ncnc(OCc3cncs3)c2Cl)C1 middle

# classify by IC50 band: CC(=O)N[C@@H](C)CO[C@H]1C[C@H](COc2ccc3nc(N4CC(F)(F)C4)sc3c2F)C1 highest

# classify by IC50 band: CC(=O)N[C@@H](C)CO[C@H]1C[C@H](COc2ncnc(OCc3ccncc3)c2Cl)C1 highest

# classify by IC50 band: CC(=O)N[C@@H](C)CO[C@H]1CC[C@H](Oc2ncc(-c3nccc(C#N)n3)cc2F)CC1 highest

# classify by IC50 band: CC(=O)N[C@@H](C)CO[C@H]1C[C@H](COc2ncnc3c2c(C)cn3CC2CC2)C1 middle

# classify by IC50 band: CC(=O)N[C@@H](C)CO[C@H]1CC[C@H](Oc2ncc3c(Cl)c(OCC4CC4)ccc3n2)CC1 middle

# classify by IC50 band: CCOc1ccc2nc(O[C@H]3CC[C@H](OC[C@H](C)NC(C)=O)CC3)n(CC)c2c1 highest

# classify by IC50 band: CC(=O)N[C@@H](C)CC[C@H]1OC[C@H](Oc2nc3c(F)cc(OCC(F)F)c(F)c3n2C)CO1 middle

# classify by IC50 band: CC(=O)N[C@@H](C)CO[C@H]1OC[C@@H](Oc2nc3c(F)cc(OCC(F)F)c(F)c3n2C)C[C@@H]1C middle

# classify by IC50 band: CCOc1nc2c(C)cc(O[C@H]3CC[C@H](OC[C@H](C)NC(C)=O)CC3)nc2s1 lowest

# classify by IC50 band: CC(=O)N[C@@H](C)CO[C@H]1C[C@H](COc2nccc(C3=CCCCC3)c2Cl)C1 middle

# classify by IC50 band: COc1cnc(-c2ccnc(OC[C@H]3C[C@H](OC[C@H](C)NC(C)=O)C3)c2Cl)nc1 highest

---

- tgt: recombinant human ACC2 (Homo sapiens (Human), UniProt O00763)
- Sequence (O00763 27-2458): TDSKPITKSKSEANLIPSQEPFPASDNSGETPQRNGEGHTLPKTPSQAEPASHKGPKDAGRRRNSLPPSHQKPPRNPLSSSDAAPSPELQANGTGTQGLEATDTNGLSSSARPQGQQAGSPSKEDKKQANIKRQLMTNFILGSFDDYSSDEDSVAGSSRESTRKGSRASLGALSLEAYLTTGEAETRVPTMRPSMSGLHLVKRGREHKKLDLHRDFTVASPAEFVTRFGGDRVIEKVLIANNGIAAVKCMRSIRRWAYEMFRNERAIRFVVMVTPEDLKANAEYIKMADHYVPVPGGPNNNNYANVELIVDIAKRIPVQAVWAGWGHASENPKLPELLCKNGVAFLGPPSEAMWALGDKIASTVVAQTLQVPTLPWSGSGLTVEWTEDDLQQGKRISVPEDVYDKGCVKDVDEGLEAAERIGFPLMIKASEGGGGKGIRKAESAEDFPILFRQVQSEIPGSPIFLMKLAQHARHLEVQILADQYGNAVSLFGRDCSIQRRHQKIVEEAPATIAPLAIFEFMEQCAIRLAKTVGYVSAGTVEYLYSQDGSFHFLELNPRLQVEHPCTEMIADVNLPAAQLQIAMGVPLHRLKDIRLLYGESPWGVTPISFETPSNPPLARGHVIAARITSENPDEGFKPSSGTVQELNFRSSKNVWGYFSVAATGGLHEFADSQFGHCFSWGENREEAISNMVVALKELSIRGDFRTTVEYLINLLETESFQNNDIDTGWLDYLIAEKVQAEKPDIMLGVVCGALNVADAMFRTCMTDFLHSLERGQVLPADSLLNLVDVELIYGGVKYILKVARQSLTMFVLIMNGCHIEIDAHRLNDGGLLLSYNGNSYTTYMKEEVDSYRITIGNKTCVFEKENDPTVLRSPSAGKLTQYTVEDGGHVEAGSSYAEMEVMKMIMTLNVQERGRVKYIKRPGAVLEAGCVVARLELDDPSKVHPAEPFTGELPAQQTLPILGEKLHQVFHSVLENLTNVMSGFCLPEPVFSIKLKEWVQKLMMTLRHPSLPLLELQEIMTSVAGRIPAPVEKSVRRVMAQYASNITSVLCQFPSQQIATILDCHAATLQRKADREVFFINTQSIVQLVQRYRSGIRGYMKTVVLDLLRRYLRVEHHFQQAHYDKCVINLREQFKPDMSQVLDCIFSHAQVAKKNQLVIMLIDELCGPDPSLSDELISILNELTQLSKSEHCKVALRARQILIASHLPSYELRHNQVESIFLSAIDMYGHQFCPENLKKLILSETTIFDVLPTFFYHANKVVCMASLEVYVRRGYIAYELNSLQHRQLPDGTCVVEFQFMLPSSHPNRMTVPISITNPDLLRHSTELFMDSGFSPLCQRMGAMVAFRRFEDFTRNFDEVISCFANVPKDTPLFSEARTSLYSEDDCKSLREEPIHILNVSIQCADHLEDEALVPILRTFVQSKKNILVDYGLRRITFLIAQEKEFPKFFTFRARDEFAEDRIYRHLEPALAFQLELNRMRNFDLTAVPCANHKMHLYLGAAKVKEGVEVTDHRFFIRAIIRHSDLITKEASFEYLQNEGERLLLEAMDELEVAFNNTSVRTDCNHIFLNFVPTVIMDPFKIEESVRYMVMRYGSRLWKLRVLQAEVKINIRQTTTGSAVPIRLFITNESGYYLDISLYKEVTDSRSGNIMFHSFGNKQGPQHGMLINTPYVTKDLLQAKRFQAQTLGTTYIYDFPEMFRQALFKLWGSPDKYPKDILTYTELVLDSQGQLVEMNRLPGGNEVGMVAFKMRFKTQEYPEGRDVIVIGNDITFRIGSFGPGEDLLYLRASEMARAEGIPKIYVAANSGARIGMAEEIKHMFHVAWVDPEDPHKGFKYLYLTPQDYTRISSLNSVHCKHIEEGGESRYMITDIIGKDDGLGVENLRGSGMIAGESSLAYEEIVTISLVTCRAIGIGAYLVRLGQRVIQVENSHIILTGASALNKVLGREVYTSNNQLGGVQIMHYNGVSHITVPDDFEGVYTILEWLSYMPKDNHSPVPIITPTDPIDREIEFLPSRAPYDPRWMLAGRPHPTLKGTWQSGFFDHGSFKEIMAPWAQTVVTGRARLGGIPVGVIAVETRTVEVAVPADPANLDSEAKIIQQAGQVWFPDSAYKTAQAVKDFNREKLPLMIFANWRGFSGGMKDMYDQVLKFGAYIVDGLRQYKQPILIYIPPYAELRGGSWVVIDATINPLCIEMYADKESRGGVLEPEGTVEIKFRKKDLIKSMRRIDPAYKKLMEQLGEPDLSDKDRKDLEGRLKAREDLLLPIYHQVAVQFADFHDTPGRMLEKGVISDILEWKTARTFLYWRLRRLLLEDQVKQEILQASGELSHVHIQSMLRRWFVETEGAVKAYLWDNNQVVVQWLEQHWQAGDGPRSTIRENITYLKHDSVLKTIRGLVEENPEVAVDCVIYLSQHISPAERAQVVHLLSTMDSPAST
- assay.notes: Measurement of inhibitory activity on human ACC2 (MALDI-TOF MS, acetyl CoA to malonyl CoA conversion)
- Format: biochemical
- condition.details: Tables 155-159
measured.attribute: pIC50
Reminder that pIC50 means the negative base-10 logarithm of the concentration expressed in mol/L.

Please review the entries below; each comes with its answer.
Return reported pIC50; argument: CCc1ccc2nc(O[C@H]3CC[C@H](OC[C@H](C)NC(C)=O)CC3)n(C)c2c1 7.15

Return reported pIC50; argument: CC(=O)N[C@@H](C)CO[C@H]1C[C@H](COc2ccc3nc(OCC(C)C)sc3n2)C1 7.92

New cases:
Return reported pIC50; argument: CC(=O)N[C@@H](C)CO[C@H]1C[C@H](COc2ncnc(OCc3cc(Cl)ccn3)c2F)C1 8.40

Return reported pIC50; argument: CC(=O)N[C@@H](C)CO[C@H]1C[C@H](COc2nccc(-c3ncc(F)cn3)c2F)C1 6.97

Return reported pIC50; argument: CC(=O)N[C@@H](C)CO[C@H]1CC[C@H](Oc2nc3c(F)cc(OCc4ccccc4)c(F)c3n2C)CC1 8.15

Return reported pIC50; argument: CC(=O)N[C@@H](C)CO[C@H]1CC[C@H](Oc2ncc(-c3ncc(F)cn3)cc2F)CC1 [Compound I-521] 7.70

Return reported pIC50; argument: CC(=O)N[C@@H](C)CO[C@H]1C[C@H](COc2ncnc(N3CCCC3)c2Cl)C1 7.59

Return reported pIC50; argument: CC(=O)N[C@@H](C)CO[C@H]1C[C@H](COc2ncnc(Oc3noc4ccccc34)c2Cl)C1 7.51

Return reported pIC50; argument: CC(=O)N[C@@H](C)CO[C@H]1C[C@H](Oc2nccc3c(OCc4ccccc4)nccc23)C1 7.85

Return reported pIC50; argument: C[C@@H](CO[C@H]1CC[C@H](Oc2nc3c(F)cc(OC4CC4)c(F)c3n2C)CC1)NC(=O)C(F)F 8.52

Return reported pIC50; argument: CC(=O)N[C@@H](C)CO[C@H]1C[C@H](COc2nc3sc(OCC(F)F)nc3cc2F)C1 7.68

Return reported pIC50; argument: CCCOc1nc2ccc(OC[C@H]3C[C@H](OC[C@H](C)NC(C)=O)C3)nc2n1C 7.09

Return reported pIC50; argument: CC(=O)N[C@@H](C)CO[C@H]1CC[C@H](Oc2nc3cnc(OCc4ccccc4)c(F)c3n2C)CC1 7.47

Return reported pIC50; argument: CC(=O)N[C@@H](C)CO[C@H]1C[C@H](COc2ncnc(/C=C/c3ccccc3)c2C)C1 7.05

Return reported pIC50; argument: CC(=O)N[C@@H](C)CO[C@H]1C[C@H](COc2nccc(-c3ccc(F)cc3)c2Cl)C1 7.47

---

# pIC50 listing for each entry below
- tgt: recombinant human ACC2 (Homo sapiens (Human), UniProt O00763)
- assay.notes: Measurement of inhibitory activity on human ACC2 (MALDI-TOF MS, acetyl CoA to malonyl CoA conversion)
- Format: biochemical
- condition.details: Tables 155-159
Reminder that pIC50 means the negative base-10 logarithm of the concentration expressed in mol/L.

Please review the entries below; each comes with its answer.
Return reported pIC50; argument: CC(=O)N[C@@H](C)CO[C@H]1CC[C@H](Oc2cc3sc(OCC(F)F)nc3cn2)CC1 7.36

Return reported pIC50; argument: CCOc1nc2cc(Cl)c(O[C@H]3CC[C@H](OC[C@H](C)NC(C)=O)CC3)nc2n1C 7.55

Return reported pIC50; argument: CC(=O)N[C@@H](C)CO[C@H]1CC[C@H](Oc2ncc3nc(O[C@@H]4CCOC4)sc3c2F)CC1 7.49

New cases:
Return reported pIC50; argument: CC(=O)N[C@@H](C)CO[C@H]1CC[C@H](Oc2nc3c(C#N)cc(C4CC4)cc3n2C)CC1 6.15

Return reported pIC50; argument: CC(=O)N[C@@H](C)CO[C@H]1C[C@](F)(COc2ccc3nc(OCC(C)(F)F)sc3n2)C1 7.32

Return reported pIC50; argument: C[C@@H](CO[C@H]1C[C@H](COc2ccc3nc(OCC(F)F)sc3n2)C1)NC(=O)O 7.10
